Test system: LTB4 production in mouse blood (LTA4 hydrolase)
Experiment: Ex vivo LTB4 production by calcium ionophore stimulated mouse blood after oral dosing
Format: in vivo
Conditions: Mus musculus, po, 1 h, read-out: Murine Ex Vivo LTB4 Inhibition % I LTB4
So basically: inhibition in vivo at 10 mg/kg at 60% or higher? That is Satisfied. Lower than 60%? That is Not satisfied.

Recorded results for 6 molecules are shown here.
CN(CCCOc1ccc(Cc2ccccc2)cc1)CCC(=O)O
Satisfied
c1cncc(Cc2ccc(OCCN3CCCC3)cc2)c1
Not satisfied
Fc1ccc(Oc2ccc(OCCN3CCCC3)cc2)cc1
Not satisfied
OC1CCN(CCOc2ccc(Cc3ccccc3)cc2)C1 (stereo not drawn)
Not satisfied
c1ccc(Cc2ccc(OCCN3CCC(c4nnn[nH]4)CC3)cc2)cc1
Satisfied
c1ccc(Cc2ccc(OCCn3cnc4ncncc43)cc2)cc1
Not satisfied

Does the molecule CC1CCCC(C)N1CCOc1ccc(Cc2ccccc2)cc1 (stereo not drawn) have recorded inhibition in vivo at 10 mg/kg that is 60% or more? Not satisfied

Item c1ccc(Oc2ccc(OCCN3CCCC3)cc2)cc1 with inhibition in vivo at 10 mg/kg of 60% or above? Not satisfied

Reported inhibition in vivo at 10 mg/kg at or above 60%? CCOC(=O)C1CCN(CCOc2ccc(Cc3ccccc3)cc2)CC1 Satisfied
